Molecular target: hMT2; MT2 melatonin receptor (Homo sapiens)
Construct: gene MTNR1B
Sequence (P49286 whole entry): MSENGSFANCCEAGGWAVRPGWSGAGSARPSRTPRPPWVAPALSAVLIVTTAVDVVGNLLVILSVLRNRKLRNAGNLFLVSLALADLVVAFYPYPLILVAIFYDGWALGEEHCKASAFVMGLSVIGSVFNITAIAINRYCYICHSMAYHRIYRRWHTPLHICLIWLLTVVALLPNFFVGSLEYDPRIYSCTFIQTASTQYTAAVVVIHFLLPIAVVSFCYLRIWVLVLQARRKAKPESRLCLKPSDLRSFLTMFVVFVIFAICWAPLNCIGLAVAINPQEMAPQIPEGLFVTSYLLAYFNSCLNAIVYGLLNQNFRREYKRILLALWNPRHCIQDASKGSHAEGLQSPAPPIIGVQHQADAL
Assay: […]-GTPγS binding, CHO-K1 membranes
Assay type: biochemical
Conditions: read-out: MT2 / pEC50 (converted)
Kindly supply the reported EC50 values for the records listed here.
Express the result in nM but write the number alone.

EC50 for COc1cc(I)c(Cc2cc(OC)c(OC)cc2CC(=O)OC(C)(C)C)cc1OC ? 0.331

State the recorded EC50 for this entry: COc1cc(F)c(Cc2cc(OC)c(OC)cc2CC(=O)OC(C)(C)C)cc1OC 1.17

Need EC50 of COc1cc(Br)c(Cc2cc(OC)c(OC)cc2CC(=O)OC(C)(C)C)cc1OC , thanks. 1.38

Fill blank: measured EC50 of the compound COc1ccc(Cc2cc(OC)c(OC)cc2CC(=O)OC(C)(C)C)cc1OC is ____. 2.04
